biological target: Group 3 secretory phospholipase A2 (Homo sapiens); experiment: human group III sPLA2 inhibitors, primary screen, biochemical, QFRET, BODIPY PC-A2 liposome substrate (AID 743126); settings: QFRET BODIPY PC-A2 liposome hydrolysis, fluorescence; at 12.2 µM; hits give high values;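 also: 0% = median of test compound wells and 100% = no enzyme DMSO wells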
Out of some 370,000 compounds screened, about 2,100 (0.57%) were called active. Only a selection was taken, and actives are over-represented in it overall.

compound	study.target	inhibition (%)
O=S1(=O)c2c(cccc2N2CCSCC2)Oc2ccccc2CN1Cc1cn(Cc2ccc(F)cc2)nn1	Group 3 secretory phospholipase A2 (Homo sapiens)	2.55
C=CCNc1scc(-c2ccccc2)[n+]1CC=C	Group 3 secretory phospholipase A2 (Homo sapiens)	20.2
Cc1ccc(-n2c(COc3ccccc3)nnc2SCC(=O)Nc2ccc3c(c2)OCCO3)cc1	Group 3 secretory phospholipase A2 (Homo sapiens)	-18.3
CCN(CC)S(=O)(=O)c1cc(C(=O)Nc2ccccn2)ccc1C	Group 3 secretory phospholipase A2 (Homo sapiens)	-0.99
c1csc(-c2nnc(SCc3nc4ccccc4[nH]3)o2)c1	Group 3 secretory phospholipase A2 (Homo sapiens)	-4.46
COc1ccc(-n2c(SCC(=O)Nc3ccc4c(c3)OCCO4)nnc2-c2ccc(Cl)cc2)cc1	Group 3 secretory phospholipase A2 (Homo sapiens)	0.31
C=C(C)C1CC23C(=O)C4(C(=O)c5ccccc5)C[C@@]5(C)CCC(CC2C1(C)C)(C4=O)C35OC (some centres undefined)	Group 3 secretory phospholipase A2 (Homo sapiens)	4.03
O=C(CN1CCCc2ccccc21)NCc1ccc(F)cc1	Group 3 secretory phospholipase A2 (Homo sapiens)	7.05
C=CCN(C)CC#Cc1ccccc1	Group 3 secretory phospholipase A2 (Homo sapiens)	6.96
CCOc1ccc(N(CC(=O)Nc2c(C)n(C)n(-c3ccccc3)c2=O)S(=O)(=O)c2ccc(Cl)s2)cc1	Group 3 secretory phospholipase A2 (Homo sapiens)	-3.41
COc1ccccc1CCNC(=O)C1CCN(c2nc(C)cc(C)n2)CC1	Group 3 secretory phospholipase A2 (Homo sapiens)	-0.08
C/C(=N\NC(=O)COc1c(C)cccc1C)c1cccs1	Group 3 secretory phospholipase A2 (Homo sapiens)	2.47
CCOC(=O)c1csc(NC(=O)Nc2cccc(OC)c2)n1	Group 3 secretory phospholipase A2 (Homo sapiens)	-1.84
CCC(C)[C@@H](C(=O)OC)N(CCc1cn(Cc2ccccc2)nn1)S(=O)(=O)c1ccccc1Br (some centres undefined)	Group 3 secretory phospholipase A2 (Homo sapiens)	-21.7
O=C(OC12CCCN(C1)/C(=C/c1ccccc1)C2)c1ccco1 (centres undefined)	Group 3 secretory phospholipase A2 (Homo sapiens)	4.15
O=C(COC(=O)c1ccccn1)NNC(=O)c1ccc(Br)cc1	Group 3 secretory phospholipase A2 (Homo sapiens)	-1.11
COC(=O)CC1CCc2cc(C)cc(C(CC(C)C)NC(=O)[C@H](CC(C)C)NC(=O)OCc3ccccc3)c2O1 (some centres undefined)	Group 3 secretory phospholipase A2 (Homo sapiens)	-3.39
O=C(NCCC1=CCCCC1)C1CCN(S(=O)(=O)c2ccc(Cl)s2)CC1	Group 3 secretory phospholipase A2 (Homo sapiens)	-2.99
COc1cccc(Cn2cc(COC(=O)Nc3ccc(F)cc3)nn2)c1	Group 3 secretory phospholipase A2 (Homo sapiens)	-7.76
CCCCOCCCNC(=O)C[C@H]1C[C@@]2(C(=O)OC)C(=C[C@H](C(C)(C)C)O[C@@H]2C)N(CCc2ccc(OC)c(OC)c2)C1=O	Group 3 secretory phospholipase A2 (Homo sapiens)	-14.2
CCCC1CCC2(CCCN2CCOC(=O)NCc2ccccc2)CC1 (centres undefined)	Group 3 secretory phospholipase A2 (Homo sapiens)	0.68
C=CCN1C(=O)[C@@H](CC(=O)NCCCCc2ccccc2)[C@]2(C(=O)OCC)CCCCC/C=C/12	Group 3 secretory phospholipase A2 (Homo sapiens)	-9.75
CC(=O)O[C@@]1(C(C)=O)CCC2[C@H]3C=C(C)C4=CC(=O)CC[C@@]4(C)C3CC[C@]21C (some centres undefined)	Group 3 secretory phospholipase A2 (Homo sapiens)	14
Cc1ccccc1-n1c(SCC(=O)Nc2cccc3ccccc23)nc(O)cc1=O	Group 3 secretory phospholipase A2 (Homo sapiens)	-4.85
CCOC(=O)CNC(=O)/C=C/c1c(Cl)cccc1Cl	Group 3 secretory phospholipase A2 (Homo sapiens)	-5.13
C/C(=N\NC(=O)CSc1nc2ccccc2c(=O)n1-c1ccccc1C)c1cccs1	Group 3 secretory phospholipase A2 (Homo sapiens)	25.2
COC(=O)[C@]12C[C@H](CC(=O)NCc3cccc4ccccc34)C(=O)N(CCc3ccc(OC)c(OC)c3)C1=C[C@H](C1CCCC1)O[C@@H]2C	Group 3 secretory phospholipase A2 (Homo sapiens)	-20.3
C=CCN1C(=O)[C@@H](CC(=O)N2CCN(C(=O)OCC)CC2)[C@]2(C(=O)OCC)CCCCC/C=C/12	Group 3 secretory phospholipase A2 (Homo sapiens)	3.8
Cn1c2c(c(=O)n(C)c1=O)C1c3ccccc3OCC1C(C)(C)O2 (centres undefined)	Group 3 secretory phospholipase A2 (Homo sapiens)	20.6
